Quick list: Minimum inhibitory concentration (MIC), Ec FADDI-EC006 per entry.
- System: Enterobacter cloacae
Positions of bridges follow the written chain, without caps; N, C: chain ends. Non-standard residues stand in square brackets, D forms with d. Residues, ends and D or L forms follow the SMILES beside them. *: point of attachment. Benzoyl(3-CF3) = O=C(c1cccc(C(F)(F)F)c1)*; Butanoyl(4-Ph) = O=C(CCCc1ccccc1)*; Heptanoyl(6-Me) = CC(C)CCCCC(=O)*; Octanoyl(6-Me) = CCC(C)CCCCC(=O)*; Nonanoyl = CCCCCCCCC(=O)*; X1 = CC[C@H](C)CCCCC(=O)*; Octanoyl = CCCCCCCC(=O)*; Orn = NCCC[C@H](N)C(=O)O; Dab = NCC[C@H](N)C(=O)O; Abu = CC[C@H](N)C(=O)O; Dap = NC[C@H](N)C(=O)O; Aib = CC(C)(N)C(=O)O
Use µg/mL as the unit, but write only the number.

compound="CCC(C)CCCCC(=O)N[C@@H](CCN)C(=O)N[C@H](C(=O)N[C@@H](CN)C(=O)N[C@H]1CCNC(=O)[C@H]([C@@H](C)O)NC(=O)[C@H](CCN)NC(=O)[C@H](CCN)NC(=O)[C@H](CC)NC(=O)[C@@H](CC(C)C)NC(=O)[C@H](CCN)NC1=O)[C@@H](C)O (stereo partly drawn) [Compound 139] ({Octanoyl(6-Me)}-[Dab]T[Dap][Dab][Dab][dL][Abu][Dab][Dab]T; lactam 4-C)" obs_value=1
compound="CC[C@H](C)CCCCC(=O)N[C@@H](CCN)C(=O)N[C@H](C(=O)N[C@H](CO)C(=O)N[C@H]1CCNC(=O)[C@H]([C@@H](C)O)NC(=O)[C@H](CCN)NC(=O)[C@H](CCN)NC(=O)[C@H]([C@@H](C)O)NC(=O)[C@@H](CC(C)C)NC(=O)[C@H](CCN)NC1=O)[C@@H](C)O [Compound 150, polymyxin D1] (X1-[Dab]T[dS][Dab][Dab][dL]T[Dab][Dab]T; lactam 4-C)" obs_value=0.5
compound="CC(C)CCCCC(=O)N[C@@H](CCN)C(=O)N[C@H](C(=O)N[C@H](CO)C(=O)N[C@H]1CCNC(=O)[C@H]([C@@H](C)O)NC(=O)[C@H](CCN)NC(=O)[C@H](CCN)NC(=O)[C@H]([C@@H](C)O)NC(=O)[C@@H](CC(C)C)NC(=O)[C@H](CCN)NC1=O)[C@@H](C)O [Compound 151, polymyxin D2] ({Heptanoyl(6-Me)}-[Dab]T[dS][Dab][Dab][dL]T[Dab][Dab]T; lactam 4-C)" obs_value=0.25
compound="CC[C@@H]1NC(=O)[C@@H](CC(C)C)NC(=O)[C@H](CCN)NC(=O)[C@@H](NC(=O)[C@H](CN)NC(=O)[C@@H](NC(=O)[C@H](CCCN)NC(=O)c2cccc(C(F)(F)F)c2)[C@@H](C)O)CCNC(=O)[C@H]([C@@H](C)O)NC(=O)[C@H](CCN)NC(=O)[C@H](CCN)NC1=O [Compound 141] ({Benzoyl(3-CF3)}-[Orn]T[Dap][Dab][Dab][dL][Abu][Dab][Dab]T; lactam 4-C)" obs_value=4
compound="CCCCCCCCC(=O)N[C@@H](CCN)C(=O)N[C@H](C(=O)N[C@@H](CN)C(=O)N[C@H]1CCNC(=O)[C@H]([C@@H](C)O)NC(=O)[C@H](CCN)NC(=O)[C@H](CCN)NC(=O)[C@H](CO)NC(=O)[C@@H](Cc2ccccc2)NC(=O)[C@H](CCN)NC1=O)[C@@H](C)O [Compound 143] (Nonanoyl-[Dab]T[Dap][Dab][Dab][dF]S[Dab][Dab]T; lactam 4-C)" obs_value=0.5
compound="CCCCCCCC(=O)N[C@@H](CCN)C(=O)N[C@H](C(=O)N[C@@H](CN)C(=O)N[C@H]1CCNC(=O)[C@H]([C@@H](C)O)NC(=O)[C@H](CCN)NC(=O)[C@H](CCN)NC(=O)C(C)(C)NC(=O)[C@@H](Cc2ccccc2)NC(=O)[C@H](CCN)NC1=O)[C@@H](C)O [Compound 140] (Octanoyl-[Dab]T[Dap][Dab][Dab][dF][Aib][Dab][Dab]T; lactam 4-C)" obs_value=1
compound="CC[C@H](C)CCCCC(=O)N[C@@H](CCN)C(=O)N[C@H](C(=O)N[C@@H](CCN)C(=O)N[C@H]1CCNC(=O)[C@H]([C@@H](C)O)NC(=O)[C@H](CCN)NC(=O)[C@H](CCN)NC(=O)[C@H]([C@@H](C)O)NC(=O)[C@@H](CC(C)C)NC(=O)[C@H](CCN)NC1=O)[C@@H](C)O [Compound 152, polymyxin M1] (X1-[Dab]T[Dab][Dab][Dab][dL]T[Dab][Dab]T; lactam 4-C)" obs_value=0.25
compound="CC(C)C[C@H]1NC(=O)[C@H](CCN)NC(=O)[C@@H](NC(=O)[C@H](CN)NC(=O)[C@@H](NC(=O)[C@H](CCN)NC(=O)CCCc2ccccc2)[C@@H](C)O)CCNC(=O)[C@H]([C@@H](C)O)NC(=O)[C@H](CCN)NC(=O)[C@H](CCN)NC(=O)[C@H](C)NC1=O [Compound 146] ({Butanoyl(4-Ph)}-[Dab]T[Dap][Dab][Dab][dL]A[Dab][Dab]T; lactam 4-C)" obs_value=0.5

Ask | What does the data say about its Minimum inhibitory concentration (MIC), Ec FADDI-EC006? Entry: CC(C)CCCCC(=O)N[C@@H](CCN)C(=O)N[C@H](C(=O)N[C@@H](CCN)C(=O)N[C@H]1CCNC(=O)[C@H]([C@@H](C)O)NC(=O)[C@H](CCN)NC(=O)[C@H](CCN)NC(=O)[C@H]([C@@H](C)O)NC(=O)[C@@H](CC(C)C)NC(=O)[C@H](CCN)NC1=O)[C@@H](C)O [Compound 153, polymyxin M2] ({Heptanoyl(6-Me)}-[Dab]T[Dab][Dab][Dab][dL]T[Dab][Dab]T; lactam 4-C)
Reply | 0.5

* * *

- System: Enterobacter cloacae
Positions of bridges follow the written chain, without caps; N, C: chain ends. Non-standard residues stand in square brackets, D forms with d. Residues, ends and D or L forms follow the SMILES beside them. *: point of attachment. Benzoyl(4-CF3) = O=C(c1ccc(C(F)(F)F)cc1)*; X13 = O=C(Cc1ccc(Cl)cc1Cl)*; Decanoyl = CCCCCCCCCC(=O)*; X24 = Cc1ccc(C(=O)*)c(C)c1; dNva = CCC[C@@H](N)C(=O)O; Octanoyl = CCCCCCCC(=O)*; Dab = NCC[C@H](N)C(=O)O; Abu = CC[C@H](N)C(=O)O; Dap = NC[C@H](N)C(=O)O; X27 = Cc1ccccc1C(=O)*
Value Type: Minimum inhibitory concentration, Ec FADDI-EC001

Example cases with answers are listed next.
molecule="CC(C)C[C@H]1NC(=O)[C@H](CCN)NC(=O)[C@@H](NC(=O)[C@H](CN)NC(=O)[C@@H](NC(=O)[C@H](CCN)NC(=O)c2ccc(C(F)(F)F)cc2)[C@@H](C)O)CCNC(=O)[C@H]([C@@H](C)O)NC(=O)[C@H](CCN)NC(=O)[C@H](CCN)NC(=O)[C@H]([C@@H](C)O)NC1=O [Compound 56] ({Benzoyl(4-CF3)}-[Dab]T[Dap][Dab][Dab][dL]T[Dab][Dab]T; lactam 4-C)" obs_value="<0.125 mg/L"
molecule="CCCCCCCCCC(=O)N[C@@H](CCN)C(=O)N[C@H](C(=O)N[C@@H](CN)C(=O)N[C@H]1CCNC(=O)[C@H]([C@@H](C)O)NC(=O)[C@H](CCN)NC(=O)[C@H](CCN)NC(=O)[C@H](C)NC(=O)[C@@H](CC(C)C)NC(=O)[C@H](CCN)NC1=O)[C@@H](C)O [Compound 38] (Decanoyl-[Dab]T[Dap][Dab][Dab][dL]A[Dab][Dab]T; lactam 4-C)" obs_value="0.5 mg/L"
molecule="CC[C@@H]1NC(=O)[C@@H](CC(C)C)NC(=O)[C@H](CCN)NC(=O)[C@@H](NC(=O)[C@H](CN)NC(=O)[C@@H](NC(=O)[C@H](CCN)NC(=O)c2ccc(C)cc2C)[C@@H](C)O)CCNC(=O)[C@H]([C@@H](C)O)NC(=O)[C@H](CCN)NC(=O)[C@H](CCN)NC1=O [Compound 89] (X24-[Dab]T[Dap][Dab][Dab][dL][Abu][Dab][Dab]T; lactam 4-C)" obs_value="<0.125 mg/L"
molecule="CC[C@@H]1NC(=O)[C@@H](CC(C)C)NC(=O)[C@H](CCN)NC(=O)[C@@H](NC(=O)[C@H](CN)NC(=O)[C@@H](NC(=O)[C@H](CCN)NC(=O)Cc2ccc(Cl)cc2Cl)[C@@H](C)O)CCNC(=O)[C@H]([C@@H](C)O)NC(=O)[C@H](CCN)NC(=O)[C@H](CCN)NC1=O [Compound 70] (X13-[Dab]T[Dap][Dab][Dab][dL][Abu][Dab][Dab]T; lactam 4-C)" obs_value="0.5 mg/L"
molecule="CCCCCCCC(=O)N[C@@H](CCN)C(=O)N[C@H](C(=O)N[C@@H](CN)C(=O)N[C@H]1CCNC(=O)[C@H]([C@@H](C)O)NC(=O)[C@H](CCN)NC(=O)[C@H](CCN)NC(=O)[C@H](CC)NC(=O)[C@@H](CCC)NC(=O)[C@H](CCN)NC1=O)[C@@H](C)O [Compound 69] (Octanoyl-[Dab]T[Dap][Dab][Dab][dNva][Abu][Dab][Dab]T; lactam 4-C)" obs_value="0.25 mg/L"

Here is the next item to consider.
Ask | # get_value(readout= Minimum inhibitory concentration, Ec FADDI-EC001, system= Enterobacter cloacae) for CC[C@@H]1NC(=O)[C@@H](CC(C)C)NC(=O)[C@H](CCN)NC(=O)[C@@H](NC(=O)[C@H](CN)NC(=O)[C@@H](NC(=O)[C@H](CCN)NC(=O)c2ccccc2C)[C@@H](C)O)CCNC(=O)[C@H]([C@@H](C)O)NC(=O)[C@H](CCN)NC(=O)[C@H](CCN)NC1=O [Compound 75] (X27-[Dab]T[Dap][Dab][Dab][dL][Abu][Dab][Dab]T; lactam 4-C)
Reply | 0.25 mg/L
